This collection of values is drawn from ChEMBL document CHEMBL1909046.

molecular target: Neuropeptide Y receptor type 2 (Homo sapiens, UniProt P49146); type: cell membranes, Membrane; conditions: kan-ts; further: in other assays of this panel Not Active means under 50% inhibition at 10 µM
Sequence (P49146 whole entry): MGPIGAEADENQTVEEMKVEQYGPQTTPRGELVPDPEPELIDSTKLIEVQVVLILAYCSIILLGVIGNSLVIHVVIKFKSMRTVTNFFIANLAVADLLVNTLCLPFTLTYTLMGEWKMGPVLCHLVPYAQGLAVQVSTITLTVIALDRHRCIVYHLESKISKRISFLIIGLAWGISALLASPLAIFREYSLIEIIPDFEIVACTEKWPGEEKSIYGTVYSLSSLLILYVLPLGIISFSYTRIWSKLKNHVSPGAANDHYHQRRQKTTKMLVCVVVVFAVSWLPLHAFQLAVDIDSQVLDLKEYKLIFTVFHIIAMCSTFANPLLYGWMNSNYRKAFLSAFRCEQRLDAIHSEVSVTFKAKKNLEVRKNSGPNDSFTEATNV

>  <Molecule>
Nc1nc(F)nc2c1ncn2[C@@H]1O[C@H](CO)[C@@H](O)[C@@H]1O [FLUDARABINE]

>  <Target system>
Neuropeptide Y receptor type 2 (Homo sapiens, UniProt P49146); further: in other assays of this panel Not Active means under 50% inhibition at 10 µM

>  <IC50>
Not Active

$$$$
>  <Molecule>
Cc1c(N)nc([C@H](CC(N)=O)NC[C@H](N)C(N)=O)nc1C(=O)N[C@H](C(=O)N[C@H](C)[C@@H](O)[C@H](C)C(=O)N[C@H](C(=O)NCCc1nc(-c2nc(C(=O)NCCC[S+](C)C)cs2)cs1)[C@@H](C)O)[C@@H](O[C@@H]1O[C@@H](CO)[C@@H](O)[C@H](O)[C@@H]1O[C@H]1O[C@H](CO)[C@@H](O)[C@H](OC(N)=O)[C@@H]1O)c1c[nH]cn1.[Br-] [BLEOMYCIN A2]

>  <Target system>
Neuropeptide Y receptor type 2 (Homo sapiens, UniProt P49146); further: in other assays of this panel Not Active means under 50% inhibition at 10 µM

>  <IC50>
Not Active

$$$$
>  <Molecule>
CC(C)(C)NC[C@H](O)COc1cccc2c1CCCC2=O [LEVOBUNOLOL]

>  <Target system>
Neuropeptide Y receptor type 2 (Homo sapiens, UniProt P49146); further: in other assays of this panel Not Active means under 50% inhibition at 10 µM

>  <IC50>
Not Active

$$$$

====

Biological target: Thromboxane-A synthase (Homo sapiens); further: in other assays of this panel Not Active means under 50% inhibition at 10 µM
Sequence (P24557 whole entry): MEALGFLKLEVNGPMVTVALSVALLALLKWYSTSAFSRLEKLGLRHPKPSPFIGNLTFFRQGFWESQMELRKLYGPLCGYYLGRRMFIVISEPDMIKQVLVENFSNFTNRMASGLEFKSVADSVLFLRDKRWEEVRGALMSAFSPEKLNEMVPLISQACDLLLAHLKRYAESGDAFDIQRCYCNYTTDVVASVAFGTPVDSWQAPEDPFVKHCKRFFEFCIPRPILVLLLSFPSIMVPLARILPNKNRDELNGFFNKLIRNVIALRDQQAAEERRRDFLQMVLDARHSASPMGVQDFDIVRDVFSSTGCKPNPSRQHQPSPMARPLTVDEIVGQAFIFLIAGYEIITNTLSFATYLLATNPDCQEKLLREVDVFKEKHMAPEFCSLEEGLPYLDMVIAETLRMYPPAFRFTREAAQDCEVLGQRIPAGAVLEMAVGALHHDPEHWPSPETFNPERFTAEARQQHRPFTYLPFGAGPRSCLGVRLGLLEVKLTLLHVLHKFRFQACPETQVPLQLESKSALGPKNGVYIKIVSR
Assay: biochemical
Assay type: tissue-based, Platelet
Conditions: platelet
Readout label: IC50

Here are 4 molecules together with their reported answers.
>  <Molecule>
C=CCc1ccc2c(c1)OCO2 [SAFROLE]

>  <Target system>
Thromboxane-A synthase (Homo sapiens); further: in other assays of this panel Not Active means under 50% inhibition at 10 µM

>  <IC50>
Not Active

$$$$
>  <Molecule>
CC(N)Cc1c[nH]c2ccc(OCc3cccs3)cc12 (stereo unspecified) [BW-723C86]

>  <Target system>
Thromboxane-A synthase (Homo sapiens); further: in other assays of this panel Not Active means under 50% inhibition at 10 µM

>  <IC50>
Not Active

$$$$
>  <Molecule>
NC(N)=Nc1nc(CSCCC(N)=NS(N)(=O)=O)cs1 [FAMOTIDINE]

>  <Target system>
Thromboxane-A synthase (Homo sapiens); further: in other assays of this panel Not Active means under 50% inhibition at 10 µM

>  <IC50>
Not Active

$$$$
>  <Molecule>
CC(C)NCC(O)COc1ccc(CC(N)=O)cc1 (stereo unspecified) [ATENOLOL]

>  <Target system>
Thromboxane-A synthase (Homo sapiens);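 further: enzyme inhibition assay with PGH2 supplied as substrate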; further: in other assays of this panel Not Active means under 50% inhibition at 10 µM

>  <IC50>
Not Active

$$$$

// field: IC50; key: O=c1[nH]c2ccccc2c2ccccc12 ; value = Not Active

// field: IC50; key: CC(O)C(=O)O (stereo unspecified) [LACTIC ACID] ; value = Not Active

====

experiment: DRUGMATRIX: Sigma2 radioligand binding (ligand: [3H] Ifenprodil); format: cell membranes, Rattus norvegicus, Wistar, Brain, Membrane; settings: Not Active = under 50% inhibition at 10 µM
Readout label: IC50

Here are 5 compounds together with their reported answers.
>  <Compound>
C[C@@H]1[C@H](O)[C@@H](C)/C=C/C=C/C=C/C=C/C=C/C=C/C=C/[C@H](O[C@@H]2O[C@H](C)[C@@H](O)[C@H](N)[C@@H]2O)C[C@@H]2O[C@](O)(C[C@@H](O)C[C@@H](O)[C@H](O)CC[C@@H](O)C[C@@H](O)CC(=O)O[C@H]1C)C[C@H](O)[C@H]2C(=O)O [AMPHOTERICIN B]

>  <IC50>
Not Active

$$$$
>  <Compound>
CCN1C[C@]2(COC)[C@H](O)C[C@H](OC)[C@@]34[C@@H]5C[C@@]6(O)[C@H](OC(=O)c7ccccc7)[C@@H]5[C@@](OC(C)=O)([C@@H]([C@H](OC)[C@H]23)[C@@H]14)[C@@H](O)[C@@H]6OC [ACONITINE]

>  <IC50>
Not Active

$$$$
>  <Compound>
O=C(O)CCc1nc(-c2ccccc2)c(-c2ccccc2)o1 [OXAPROZIN]

>  <IC50>
Not Active

$$$$
>  <Compound>
Cl.NC[C@H]1CC[C@H](C(=O)Oc2ccc(CCC(=O)O)cc2)CC1 [CETRAXATE HYDROCHLORIDE]

>  <IC50>
Not Active

$$$$
>  <Compound>
O=C(Nc1ccc(Cl)c(Cl)c1)c1cc(Cl)cc(Cl)c1O [3,3',4',5-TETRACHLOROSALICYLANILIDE]

>  <IC50>
Not Active

$$$$

Alright, here's another compound for you.
// field: IC50; key: ClC1=C(Cl)[C@]2(Cl)[C@@H]3[C@@H]4C[C@@H]([C@H]5O[C@@H]45)[C@@H]3[C@@]1(Cl)C2(Cl)Cl [DIELDRIN] ; value = Not Active

====

experiment: DRUGMATRIX: Sigma2 radioligand binding (ligand: [3H] Ifenprodil); format: cell membranes, Rattus norvegicus, Wistar, Brain, Membrane; conditions: Not Active = under 50% inhibition at 10 µM
Readout label: IC50

Here are 4 molecules together with their reported answers.
>  <Molecule>
O=C(O)c1ccccc1

>  <IC50>
Not Active

$$$$
>  <Molecule>
NC(=O)NC(=O)Cc1ccccc1 [PHENACEMIDE]

>  <IC50>
Not Active

$$$$
>  <Molecule>
CS(=O)(=O)c1ccc(C2=C(c3ccccc3)C(=O)OC2)cc1

>  <IC50>
Not Active

$$$$
>  <Molecule>
O=C(O)COC(=O)Cc1ccccc1Nc1c(Cl)cccc1Cl

>  <IC50>
Not Active

$$$$

// field: IC50; key: CC(Cl)(Cl)Cl ; value = Not Active

// field: IC50; key: COC(=O)Nc1nc2ccc(C(=O)c3ccccc3)cc2[nH]1 ; value = Not Active

// field: IC50; key: CN1C[C@H](CNC(=O)OCc2ccccc2)C[C@@H]2c3cccc4c3c(cn4C)C[C@H]21 ; value = Not Active

// field: IC50; key: COc1ccccc1OCCNCC(O)COc1cccc2[nH]c3ccccc3c12 (stereo not drawn) ; value = Not Active

// field: IC50; key: NS(=O)(=O)c1cc(C(=O)O)c(NCc2ccco2)cc1Cl [FUROSEMIDE] ; value = Not Active

// field: IC50; key: CC12CCC(CC1=O)C2(C)C (stereo not drawn) ; value = Not Active

====

target: Epidermal growth factor receptor (Homo sapiens, UniProt P00533); test: DRUGMATRIX: Protein Tyrosine Kinase, EGF Receptor enzyme inhibition (substrate: Poly(Glu:Tyr)); type: cell-based, Insect cells; settings: insect cells; Not Active = under 50% inhibition at 10 µM
Sequence (P00533 whole entry): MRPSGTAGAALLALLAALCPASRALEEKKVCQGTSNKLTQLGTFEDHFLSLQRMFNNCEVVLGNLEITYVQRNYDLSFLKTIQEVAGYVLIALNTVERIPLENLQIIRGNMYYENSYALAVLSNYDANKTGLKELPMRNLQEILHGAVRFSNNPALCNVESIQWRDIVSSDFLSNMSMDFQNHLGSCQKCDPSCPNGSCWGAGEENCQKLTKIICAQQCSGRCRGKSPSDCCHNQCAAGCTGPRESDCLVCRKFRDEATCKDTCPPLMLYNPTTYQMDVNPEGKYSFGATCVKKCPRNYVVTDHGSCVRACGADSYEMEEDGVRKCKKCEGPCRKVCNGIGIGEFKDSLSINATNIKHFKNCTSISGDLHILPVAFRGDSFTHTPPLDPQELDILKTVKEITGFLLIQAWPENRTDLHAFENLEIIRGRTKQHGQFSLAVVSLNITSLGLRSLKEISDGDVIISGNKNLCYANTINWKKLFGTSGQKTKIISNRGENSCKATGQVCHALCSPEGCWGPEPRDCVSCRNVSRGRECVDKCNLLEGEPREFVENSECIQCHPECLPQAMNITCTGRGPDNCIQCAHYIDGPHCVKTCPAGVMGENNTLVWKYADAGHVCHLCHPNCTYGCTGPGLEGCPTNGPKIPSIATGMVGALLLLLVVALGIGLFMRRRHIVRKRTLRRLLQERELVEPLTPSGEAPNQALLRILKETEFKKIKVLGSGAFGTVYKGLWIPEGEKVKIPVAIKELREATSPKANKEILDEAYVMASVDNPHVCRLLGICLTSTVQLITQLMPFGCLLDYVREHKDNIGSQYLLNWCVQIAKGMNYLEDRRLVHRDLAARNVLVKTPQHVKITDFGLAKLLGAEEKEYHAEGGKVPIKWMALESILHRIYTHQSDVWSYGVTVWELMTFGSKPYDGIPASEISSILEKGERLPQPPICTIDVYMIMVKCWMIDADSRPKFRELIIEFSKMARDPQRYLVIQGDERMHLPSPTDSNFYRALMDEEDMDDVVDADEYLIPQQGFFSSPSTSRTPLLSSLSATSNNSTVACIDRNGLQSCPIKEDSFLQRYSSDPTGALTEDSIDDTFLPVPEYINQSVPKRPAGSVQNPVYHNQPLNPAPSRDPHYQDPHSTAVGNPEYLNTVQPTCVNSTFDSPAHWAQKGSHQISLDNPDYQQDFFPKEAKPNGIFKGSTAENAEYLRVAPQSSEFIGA

>  <Molecule>
C#C[C@]1(O)CC[C@H]2[C@@H]3[C@H](C)CC4=C(CCC(=O)C4)[C@H]3CC[C@@]21C

>  <Target system>
Epidermal growth factor receptor (Homo sapiens, UniProt P00533)

>  <IC50>
Not Active

$$$$
>  <Molecule>
Cc1ccnc2c1NC(=O)c1cccnc1N2C1CC1

>  <Target system>
Epidermal growth factor receptor (Homo sapiens, UniProt P00533)

>  <IC50>
Not Active

$$$$
>  <Molecule>
CC(N)Cc1c[nH]c2ccc(OCc3cccs3)cc12 (centres undefined)

>  <Target system>
Epidermal growth factor receptor (Homo sapiens, UniProt P00533)

>  <IC50>
Not Active

$$$$
>  <Molecule>
COC(=O)C[C@](O)(CCC(C)(C)O)C(=O)O[C@@H]1C(OC)=C[C@]23CCCN2CCc2cc4c(cc2[C@H]13)OCO4

>  <Target system>
Epidermal growth factor receptor (Homo sapiens, UniProt P00533)

>  <IC50>
Not Active

$$$$

====

experiment: DRUGMATRIX: Imidazoline I2, Central radioligand binding (ligand: [3H] Idazoxan); format: cell membranes, Rattus norvegicus, Wistar, Cerebral cortex, Membrane; conditions: Not Active = under 50% inhibition at 10 µM
Readout label: Ki

Here are 5 compounds together with their reported answers.
>  <Compound>
Cc1c(N)nc([C@H](CC(N)=O)NC[C@H](N)C(N)=O)nc1C(=O)N[C@H](C(=O)N[C@H](C)[C@@H](O)[C@H](C)C(=O)N[C@H](C(=O)NCCc1nc(-c2nc(C(=O)NCCC[S+](C)C)cs2)cs1)[C@@H](C)O)[C@@H](O[C@@H]1O[C@@H](CO)[C@@H](O)[C@H](O)[C@@H]1O[C@H]1O[C@H](CO)[C@@H](O)[C@H](OC(N)=O)[C@@H]1O)c1c[nH]cn1.[Br-]

>  <Ki>
Not Active

$$$$
>  <Compound>
COC(=O)Nc1nc2ccc(C(=O)c3ccccc3)cc2[nH]1

>  <Ki>
Not Active

$$$$
>  <Compound>
Nc1ccc(C(=O)O)c(O)c1

>  <Ki>
Not Active

$$$$
>  <Compound>
O=C1c2ccccc2C(=O)C1c1ccccc1

>  <Ki>
Not Active

$$$$
>  <Compound>
O=[As][O-].[Na+] [SODIUM ARSENITE]

>  <Ki>
Not Active

$$$$

// field: Ki; key: CC(C)(c1ccc(O)cc1)c1ccc(O)cc1 ; value = Not Active

// field: Ki; key: Cc1ccc(Cl)c(Nc2ccccc2C(=O)O)c1Cl ; value = Not Active

// field: Ki; key: Nc1ccc(Cc2ccc(N)cc2)cc1 ; value = Not Active

// field: Ki; key: Oc1ncnc2[nH]ncc12 ; value = Not Active

// field: Ki; key: CC(C)(C#N)c1cc(Cn2cncn2)cc(C(C)(C)C#N)c1 ; value = Not Active

// field: Ki; key: NC(=O)CN1CCCC1=O ; value = Not Active

// field: Ki; key: CO[C@@]12[C@H](COC(N)=O)C3=C(C(=O)C(C)=C(N)C3=O)N1C[C@@H]1N[C@@H]12 ; value = Not Active

// field: Ki; key: OC[C@@H](O)[C@@H](O)[C@H](O)[C@H](O)CO ; value = Not Active

// field: Ki; key: CC#C[C@]1(O)CC[C@H]2[C@@H]3CCC4=CC(=O)CCC4=C3[C@@H](c3ccc(N(C)C)cc3)C[C@@]21C ; value = Not Active
